Property: EC50; scope: individual compounds
biological target: human orexin-2 receptor (OX2R) (Homo sapiens); experiment: Human OX2R IP1 assay; conditions: T-Rex CHO cells stably overexpressing human OX2R; IP1 accumulation, 1 hr at 37 degrees C
Sequence (O43614 whole entry): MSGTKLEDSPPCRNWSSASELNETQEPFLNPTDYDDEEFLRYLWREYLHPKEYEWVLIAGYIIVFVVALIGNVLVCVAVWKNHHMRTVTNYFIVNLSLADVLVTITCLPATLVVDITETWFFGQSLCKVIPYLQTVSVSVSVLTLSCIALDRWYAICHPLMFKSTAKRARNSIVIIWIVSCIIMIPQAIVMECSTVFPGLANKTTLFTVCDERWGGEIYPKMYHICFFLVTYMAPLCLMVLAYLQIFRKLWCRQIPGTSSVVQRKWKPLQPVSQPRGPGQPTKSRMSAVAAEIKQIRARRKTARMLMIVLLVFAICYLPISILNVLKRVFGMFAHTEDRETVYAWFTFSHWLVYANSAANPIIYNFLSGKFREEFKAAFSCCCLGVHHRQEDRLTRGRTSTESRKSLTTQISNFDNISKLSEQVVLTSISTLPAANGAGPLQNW

{"columns": ["COMPOUND", "STUDY TARGET", "EC50"],
 "data": [
  ["CS(=O)(=O)N[C@H]1CCN(c2cccnn2)C[C@H]1CO[C@H]1CC[C@@H](c2ccccc2)CC1 [Compound 22]", "human orexin-2 receptor (OX2R) (Homo sapiens)", "< 0.1 µM"],
  ["CS(=O)(=O)N[C@H]1CCN(c2ccccn2)C[C@H]1CO[C@H]1CC[C@@H](c2ccncc2)CC1 [Compound 4]", "human orexin-2 receptor (OX2R) (Homo sapiens)", "< 0.1 µM"],
  ["Cc1cc(C)cc([C@H]2CC[C@@H](OC[C@@H]3CN(c4ccccn4)CC[C@@H]3NS(C)(=O)=O)CC2)c1 [Compound 18]", "human orexin-2 receptor (OX2R) (Homo sapiens)", "< 0.1 µM"],
  ["CS(=O)(=O)N[C@H]1CCN(c2ccccn2)C[C@H]1CO[C@H]1CC[C@@H](c2cccc(C(F)(F)F)c2)CC1 [Compound 33]", "human orexin-2 receptor (OX2R) (Homo sapiens)", "0.1 to 1 µM"],
  ["CS(=O)(=O)N[C@H]1CCN(c2cccc(F)n2)C[C@H]1CO[C@H]1CC[C@@H](c2ccccc2)CC1 [Compound 23]", "human orexin-2 receptor (OX2R) (Homo sapiens)", "< 0.1 µM"],
  ["CS(=O)(=O)N[C@H]1CCN(Cc2cccnc2)C[C@H]1CO[C@H]1CC[C@@H](c2ccccc2)CC1 [Compound 40]", "human orexin-2 receptor (OX2R) (Homo sapiens)", "> 1 µM"],
  ["CS(=O)(=O)N[C@H]1CCN(c2ccccn2)C[C@H]1CO[C@H]1CC[C@@H](c2ccccc2)CC1 [Compound 10]", "human orexin-2 receptor (OX2R) (Homo sapiens)", "< 0.1 µM"]
]}
